System: MYB mRNA
Assay: Splicing RT-qPCR assay, MYB canonical (CJ) and alternative (AJ) junction mRNA
Type: cell-based, human
Conditions: Homo sapiens; canonical junction mRNA, RT-qPCR, A673 or K562 cells, 24 hours treatment; read-out: MYB CJ (IC50, decrease in CJ mRNA)
pIC50: −log10 of the molar value.
Please go through the items and note down their pIC50.

Problem: Give the measured pIC50 of "C[C@@H]1CN(c2cnc3nc(-c4ccc5nn(C)cc5c4)cc(Cl)c3c2)C[C@H](C)N1" .
Solution: 5.00 to 6.00

Problem: // returns reported pIC50 for input "Cn1cc2cc(-c3cc(Cl)c4cc(N5CCNC6(CC6)C5)cnc4n3)c(O)c(F)c2n1"
Solution: > 7.00

Problem: I have this compound here, "Cc1c(N2C[C@H](C)N[C@@H](C)C2)cnc2nc(-c3cc4cn(C)nc4c(C)c3O)ccc12" , and I need its recorded pIC50.
Solution: > 7.00

Problem: Reported pIC50, compound "Cc1c(O)c(-c2cc(Cl)c3cc(N4CCNCC4)cnc3n2)cc2cn(C)nc12" : ____
Solution: > 7.00

Problem: # get_value(readout='pIC50', item= "Cc1c(N2C[C@@H](C)N[C@@H](C)C2)cnc2nc(-c3cc4cn(C)nc4cc3O)ccc12" )
Solution: 5.00 to 6.00

Problem: Fill blank: measured pIC50 of the compound "Cc1cn2cc(-c3cc(Cl)c4cc(N5C[C@@H](C)N[C@@H](C)C5)cnc4n3)cc(F)c2n1" is ____.
Solution: 6.00 to 7.00

Problem: Query: pIC50; subject: "Cc1c(O)c(-c2cc(Cl)c3cc(N4C[C@H](C)N[C@@H](C)C4)cnc3n2)cc2cn(C)nc12"
Solution: > 7.00
